Test system: KAI3 (IL-2 2.5 ng/mL)
Experiment: drug sensitivity score (DSS) (DSS units); higher = more sensitive; extreme values may be limits of the assay
Details: 72 h
Provide the recorded drug sensitivity score for the entries that follow.
I only need the number, thanks.

Inquiry: Name the recorded drug sensitivity score for CC[C@]1(O)C[C@@H]2CN(CCc3c([nH]c4ccccc34)[C@@](C(=O)OC)(c3cc4c(cc3OC)N(C)[C@H]3[C@@](O)(C(=O)OC)[C@H](OC(C)=O)[C@]5(CC)C=CCN6CC[C@]43[C@@H]65)C2)C1 [Vinblastine] (max concentration tested 1000 nM) .
Reply text: 20.6

Inquiry: Name the recorded drug sensitivity score for COC(=O)C[C@](O)(CCCC(C)(C)O)C(=O)O[C@@H]1C(OC)=C[C@]23CCCN2CCc2cc4c(cc2[C@H]13)OCO4 [Omacetaxine] (max concentration tested 10000 nM) .
Reply text: 37.1

Inquiry: Name the recorded drug sensitivity score for O=C1NC(=O)/C(=C/c2ccc3nccc(-c4ccncc4)c3c2)S1 (max concentration tested 10000 nM) .
Reply text: 7.69

Inquiry: Name the recorded drug sensitivity score for C[C@@H]1C[C@H]2O[C@@H]2/C=C\C=C\C(=O)Cc2c(Cl)c(O)cc(O)c2C(=O)O1 [Radicicol] (max concentration tested 10000 nM) .
Reply text: 25.1

Inquiry: Name the recorded drug sensitivity score for S=c1[nH]cnc2nc[nH]c12 [Mercaptopurine] (max concentration tested 10000 nM) .
Reply text: 3.99

Inquiry: Name the recorded drug sensitivity score for CNC(=O)c1cccc2cc(Oc3ccnc4cc(OCC5(N)CC5)c(OC)cc34)ccc12 [Lucitanib] (max concentration tested 10000 nM) .
Reply text: 4.47

Inquiry: Name the recorded drug sensitivity score for O=C(O)c1ccc(O)c2ncccc12 [IOX-1] (max concentration tested 100000 nM) .
Reply text: 8.02

Inquiry: Name the recorded drug sensitivity score for COc1cc2ncnc(Nc3ccc(F)c(Cl)c3)c2cc1OCCCN1CCOCC1 [Gefitinib] (max concentration tested 10000 nM) .
Reply text: 4.99

Inquiry: Name the recorded drug sensitivity score for CN1CCN(c2cc(C(=O)Nc3ccc4c(c3)-c3c(c(C(N)=O)nn3-c3ccc(F)cc3)CC4)c(Cl)cn2)CC1 [PHA 408] (max concentration tested 10000 nM) .
Reply text: 11.6

Inquiry: Name the recorded drug sensitivity score for CC(=O)NCC(=O)N1[C@@H]2CC[C@H]1c1ccc(Nc3ncc(C(F)(F)F)c(NC4CCC4)n3)cc12 (max concentration tested 10000 nM) .
Reply text: 22.9

Inquiry: Name the recorded drug sensitivity score for CCN(CC)C(=S)SSC(=S)N(CC)CC [Disulfiram] (max concentration tested 100000 nM) .
Reply text: 8.84

Inquiry: Name the recorded drug sensitivity score for Cc1sc2c(c1C)C(c1ccc(Cl)cc1)=N[C@@H](CC(=O)Nc1ccc(O)cc1)c1nnc(C)n1-2 [OTX015] (max concentration tested 10000 nM) .
Reply text: 8.88

* * *

System: NK-YS (IL-2 2.5 ng/mL)
Assay: percent inhibition of viability; higher = more inhibition
Conditions: 72 h; 1 nM
Property Measured: percent inhibition of viability (%)
Please reply with the bare figure in % and do not write the unit itself.

Inquiry: Name the recorded percent inhibition of viability for CN1CC[C@H](c2c(O)cc(O)c3c(=O)cc(-c4ccccc4Cl)oc23)[C@H](O)C1 [Alvocidib] (max concentration tested 10000 nM) .
Reply text: -0.27

Inquiry: Name the recorded percent inhibition of viability for C#Cc1cccc(Nc2ncnc3cc4c(cc23)OCCOCCOCCO4)c1 [Icotinib] (max concentration tested 10000 nM) .
Reply text: 1.39

Inquiry: Name the recorded percent inhibition of viability for CN(C)C(=O)c1cc2cnc(Nc3ccc(N4CCNCC4)cn3)nc2n1C1CCCC1 [NVP-LEE011] (max concentration tested 10000 nM) .
Reply text: -2.35

Inquiry: Name the recorded percent inhibition of viability for S=c1[nH]cnc2nc[nH]c12 [Mercaptopurine] (max concentration tested 10000 nM) .
Reply text: -2.27

Inquiry: Name the recorded percent inhibition of viability for Cc1cc(Nc2cc(CN3CCOCC3)c3nc(C)c(Cc4ccc(Cl)cc4F)n3n2)n[nH]1 [Gandotinib] (max concentration tested 10000 nM) .
Reply text: 1.47

Inquiry: Name the recorded percent inhibition of viability for CN1CCN(c2cc(C(=O)Nc3ccc4c(c3)-c3c(c(C(N)=O)nn3-c3ccc(F)cc3)CC4)c(Cl)cn2)CC1 [PHA 408] (max concentration tested 10000 nM) .
Reply text: -12.4

Inquiry: Name the recorded percent inhibition of viability for COc1cc(O)c2c(c1)/C=C/C[C@H](O)[C@H](O)C(=O)/C=C\C[C@H](C)OC2=O [(5Z)-7-Oxozeaenol] (max concentration tested 10000 nM) .
Reply text: -3.96

Inquiry: Name the recorded percent inhibition of viability for COc1ncc(-c2ccc3nccc(-c4ccnnc4)c3c2)cc1NS(=O)(=O)c1ccc(F)cc1F [Omipalisib] (max concentration tested 1000 nM) .
Reply text: 1.69

Inquiry: Name the recorded percent inhibition of viability for COc1ccc(C[C@H](NC(=O)[C@H](C)NC(=O)CN2CCOCC2)C(=O)N[C@@H](Cc2ccccc2)C(=O)C2(C)CO2)cc1 (stereo in doubt) [ONX-0914] (max concentration tested 10000 nM) .
Reply text: 13.1

Inquiry: Name the recorded percent inhibition of viability for CCn1c(-c2nonc2N)nc2c(C#CC(C)(C)O)ncc(OC[C@H]3CCCNC3)c21 (max concentration tested 10000 nM) .
Reply text: -2.15

* * *

System: SNK-6 (IL-2 2.5 ng/mL)
Assay: percent inhibition of viability; higher = more inhibition
Conditions: 72 h; 100 nM
Property Measured: percent inhibition of viability (%)
Please reply with the bare figure in % and do not write the unit itself.

Inquiry: Name the recorded percent inhibition of viability for Cc1c2oc3c(C)ccc(C(=O)N[C@@H]4C(=O)N[C@H](C(C)C)C(=O)N5CCC[C@H]5C(=O)N(C)CC(=O)N(C)[C@@H](C(C)C)C(=O)O[C@@H]4C)c3nc-2c(C(=O)N[C@@H]2C(=O)N[C@H](C(C)C)C(=O)N3CCC[C@H]3C(=O)N(C)CC(=O)N(C)[C@@H](C(C)C)C(=O)O[C@@H]2C)c(N)c1=O [Dactinomycin] (max concentration tested 1000 nM) .
Reply text: 99.6

Inquiry: Name the recorded percent inhibition of viability for COc1cc(F)c(F)c(Nc2ccc(I)cc2F)c1NS(=O)(=O)C1(C[C@H](O)CO)CC1 [Refametinib] (max concentration tested 10000 nM) .
Reply text: -25

Inquiry: Name the recorded percent inhibition of viability for Cn1c(=O)c(F)c(Nc2ccc(I)cc2F)c2c(=O)n(C[C@@H](O)CO)cnc21 [TAK-733] (max concentration tested 1000 nM) .
Reply text: 3.19

Inquiry: Name the recorded percent inhibition of viability for O=C(Nc1ccc2[nH]nc(-c3ccncc3)c2c1)[C@@H]1CCN(CC(=O)N2CCN(c3ccc(-c4ncccn4)cc3)CC2)C1 (max concentration tested 10000 nM) .
Reply text: 5.1

Inquiry: Name the recorded percent inhibition of viability for O=C(Nc1ccncc1)C(=O)c1cn(Cc2ccc(Cl)cc2)c2ccccc12 [Indibulin] (max concentration tested 10000 nM) .
Reply text: 78.4

* * *

System: NK-YS (IL-2 2.5 ng/mL)
Experiment: percent inhibition of viability; higher = more inhibition
Details: 72 h; 10000 nM
Property Measured: percent inhibition of viability

Inquiry: Name the recorded percent inhibition of viability for S=c1[nH]cnc2nc[nH]c12 [Mercaptopurine] (max concentration tested 10000 nM) .
Reply text: 90.4%

Inquiry: Name the recorded percent inhibition of viability for CN1CC[C@H](c2c(O)cc(O)c3c(=O)cc(-c4ccccc4Cl)oc23)[C@H](O)C1 [Alvocidib] (max concentration tested 10000 nM) .
Reply text: 103%

Inquiry: Name the recorded percent inhibition of viability for CCN(CC)C(=S)SSC(=S)N(CC)CC [Disulfiram] (max concentration tested 100000 nM) .
Reply text: 59.1%

Inquiry: Name the recorded percent inhibition of viability for CC1=C(/C=C/C(C)=C/C=C/C(C)=C/C(=O)O)C(C)(C)CCC1 [Tretinoin] (max concentration tested 10000 nM) .
Reply text: 28.9%

Inquiry: Name the recorded percent inhibition of viability for O=NN(CCCl)C(=O)NCCCl [Carmustine] (max concentration tested 10000 nM) .
Reply text: 7.95%

Inquiry: Name the recorded percent inhibition of viability for Cc1cc(C(=O)NOCCO)c(Nc2ccc(I)cc2F)n(C)c1=O [AZD-8330] (max concentration tested 10000 nM) .
Reply text: 13.5%

Inquiry: Name the recorded percent inhibition of viability for COc1cc2c(cc1O)CC[C@@H]1[C@@H]2CC[C@]2(C)[C@@H](O)CC[C@@H]12 [2-methoxyestradiol] (max concentration tested 10000 nM) .
Reply text: 66%

Inquiry: Name the recorded percent inhibition of viability for COc1cc(F)c(F)c(Nc2ccc(I)cc2F)c1NS(=O)(=O)C1(C[C@H](O)CO)CC1 [Refametinib] (max concentration tested 10000 nM) .
Reply text: 31.5%

Inquiry: Name the recorded percent inhibition of viability for CC(C)Oc1ccc(C(=O)N[C@H](CNC(=O)CN(C)C)Cc2ccc(-c3cn4cccc([C@H](C)O)c4n3)cc2)cc1Cl (max concentration tested 10000 nM) .
Reply text: 89.7%

Inquiry: Name the recorded percent inhibition of viability for O=C(Nc1ccncc1)C(=O)c1cn(Cc2ccc(Cl)cc2)c2ccccc12 [Indibulin] (max concentration tested 10000 nM) .
Reply text: 62.7%

Inquiry: Name the recorded percent inhibition of viability for CCc1nc(-c2cccc(C)c2)c(-c2ccnc(NC(=O)c3ccccc3)c2)s1 [TAK-715] (max concentration tested 10000 nM) .
Reply text: 54.6%

Inquiry: Name the recorded percent inhibition of viability for C[C@@H]1C[C@H]2O[C@@H]2/C=C\C=C\C(=O)Cc2c(Cl)c(O)cc(O)c2C(=O)O1 [Radicicol] (max concentration tested 10000 nM) .
Reply text: 99.7%

Inquiry: Name the recorded percent inhibition of viability for O=C(/C=C\n1cnc(-c2cc(C(F)(F)F)cc(C(F)(F)F)c2)n1)NNc1cnccn1 [Selinexor] (max concentration tested 10000 nM) .
Reply text: 95.4%

Inquiry: Name the recorded percent inhibition of viability for O=C1NC(=O)/C(=C/c2ccc3nccc(-c4ccncc4)c3c2)S1 (max concentration tested 10000 nM) .
Reply text: 74.2%
